The reported measurements were obtained from patent US20240368243A1.

# study-system: … (SEQ ID NO: 1)-HLA-A*02 complex (soluble, biotinylated) (human)
# procedure-details: SPR (BIAcore) or BLI (Octet) per Example 3, biotinylated pHLA immobilised, 25 C
Here, each record is paired with measured t1/2 data.

binder	t1/2
ImmTAC molecule comprising a79 (SEQ ID NO: 7) and b64 (SEQ ID NO: 12) (TCR, part only; not given: anti-CD3 scFv, linker, TCR constants, part only) TCR alpha, part: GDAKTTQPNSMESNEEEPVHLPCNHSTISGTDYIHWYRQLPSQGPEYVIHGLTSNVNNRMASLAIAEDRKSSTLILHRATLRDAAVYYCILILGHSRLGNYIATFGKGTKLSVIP TCR beta, part: DGGITQSPKYLFRKEGQNVTLSCEQNLNHDAMYWYRQDPGQGLRLIYYSQIMNDEQKGDIAEGYSVSREKKESFPLTVTSAQKNPTAFYLCASSWWTGGSAPIRFGPGTRLTVT	6.38 h
ImmTAC molecule comprising a28 (SEQ ID NO: 6) and b74 (SEQ ID NO: 17) (TCR, part only; not given: anti-CD3 scFv, linker, TCR constants, part only) TCR alpha, part: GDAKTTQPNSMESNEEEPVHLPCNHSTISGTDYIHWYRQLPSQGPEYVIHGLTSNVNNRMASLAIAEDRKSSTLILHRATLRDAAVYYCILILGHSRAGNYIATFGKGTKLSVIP TCR beta, part: DGGITQSPKYLFRKEGQNVTLSCEQNLNHDAMYWYRQDPGQGLRLIYYSQIMGDEQKGDIAEGYSVSREKKESFPLTVTSAQKNPTAFYLCASSWWTGGASPIRFGPGTRLTVT	3.7 h
ImmTAC molecule comprising a28 (SEQ ID NO: 6) and b75 (SEQ ID NO: 20) (TCR, part only; not given: anti-CD3 scFv, linker, TCR constants, part only) TCR alpha, part: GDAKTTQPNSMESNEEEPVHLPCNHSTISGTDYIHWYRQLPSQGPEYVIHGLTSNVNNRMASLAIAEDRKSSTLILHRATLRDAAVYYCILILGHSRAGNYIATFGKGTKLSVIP TCR beta, part: DGGITQSPKYLFRKEGQNVTLSCEQNLNHDAMYWYRQDPGQGLRLIYYSQIMGDEQKGDIAEGYSVSREKKESFPLTVTSAQKNPTAFYLCASSWWTGGSAPISFGPGTRLTVT	5.1 h
